Entries and their MCC values follow.
- experiment: Evaluation in PRK cell cultures for cytotoxicity that is to cause microscopically detectable alteration of normal cell morphology
- Assay type: functional
- experimental_parameters: Oryctolagus cuniculus

| smiles_structure | MCC |
| --- | --- |
| O[C@@H]1CSCON2CCc3c([nH]c4ccccc34)[C@@H]12 | > 100 µg/mL |
| N[C@H]1CSCON2CCc3c([nH]c4ccccc34)[C@H]12 | 10 µg/mL |
| COc1ccc2[nH]c3c(c2c1)CCN1OCSC[C@@H](N)[C@H]31 | > 10 µg/mL |
| COc1ccc2[nH]c3c(c2c1)CCN1OCSC[C@@H](N)[C@@H]31 | > 1 µg/mL |

====

- experiment: Evaluation for antiviral activity against herpes simplex virus-1 (McIntyre) in primary rabbit kidney cell cultures(PRK) (Concentration required to reduce virus-induced cytopathogenicity by 50%)
- Type: functional
- experimental_parameters: Oryctolagus cuniculus
Entries and their MIC values follow.
readout_type: MIC (µg/mL)

| molecule | readout_type | comparison_symbol | measured_result |
| --- | --- | --- | --- |
| N[C@@H]1CSCON2CCc3c([nH]c4ccccc34)[C@H]12 | MIC | = | 0.2 |
| N[C@H]1CSCON2CCc3c([nH]c4ccccc34)[C@H]12 | MIC | > | 4 |
| COc1ccc2[nH]c3c(c2c1)CCN1OCSC[C@@H](N)[C@H]31 | MIC | > | 4 |
| N[C@H]1CSCON2CCc3c([nH]c4ccccc34)[C@@H]12 | MIC | = | 2 |
| O=c1[nH]c(=O)n([C@H]2C[C@H](O)[C@@H](CO)O2)cc1/C=C/Br | MIC | = | 0.02 |
| Cn1c2c(c3ccccc31)CCN1OCSC[C@@H](N)[C@@H]21 | MIC | = | 0.7 |
| N[C@@H]1CSCON2CCc3c([nH]c4ccccc34)[C@@H]12 | MIC | > | 10 |
| NC(=O)c1ncn([C@@H]2O[C@H](CO)[C@@H](O)[C@H]2O)n1 | MIC | > | 200 |
| c1ccc2c3c([nH]c2c1)C1CCSCON1CC3 (stereo unspecified) | MIC | > | 100 |
| Nc1nccc2c1ncn2[C@@H]1C[C@H](CO)[C@@H](O)[C@H]1O | MIC | > | 200 |
| COc1ccc2[nH]c3c(c2c1)CCN1OCSC[C@@H](N)[C@@H]31 | MIC | = | 0.02 |

====

- Tested on: MDCK
- experiment: Compound was evaluated in MDCK cell cultures for cytotoxicity that is to cause microscopically detectable alteration of normal cell morphology
- Assay type: functional
- experimental_parameters: Canis lupus familiaris

| molecule | comparison_symbol | MCC / µg/mL |
| --- | --- | --- |
| COc1ccc2[nH]c3c(c2c1)CCN1OCSC[C@@H](N)[C@@H]31 | = | 0.8 |
| NC(=O)c1ncn([C@@H]2O[C@H](CO)[C@@H](O)[C@H]2O)n1 | > | 200 |
| N[C@H]1CSCON2CCc3c([nH]c4ccccc34)[C@H]12 | = | 8 |
| N[C@H]1CSCON2CCc3c([nH]c4ccccc34)[C@@H]12 | = | 40 |
| c1ccc2c3c([nH]c2c1)C1CCSCON1CC3 (stereo not drawn) | = | 80 |
| N[C@@H]1CSCON2CCc3c([nH]c4ccccc34)[C@@H]12 | = | 15 |
| O[C@@H]1CSCON2CCc3c([nH]c4ccccc34)[C@@H]12 | = | 3 |
| N[C@@H]1CSCON2CCc3c([nH]c4ccccc34)[C@H]12 | = | 8 |

====

- Test system: Vero
- experiment: Evaluation for antiviral activity against Coxsackie virus B4 in Vero cell cultures (Concentration required to reduce virus-induced cytopathogenicity by 50%)
- Assay type: functional
- experimental_parameters: Chlorocebus sabaeus

| molecule | system | comparison_symbol | MIC [µg/mL] |
| --- | --- | --- | --- |
| Nc1nccc2c1ncn2[C@@H]1C[C@H](CO)[C@@H](O)[C@H]1O | Vero | = | 20 |
| COc1ccc2[nH]c3c(c2c1)CCN1OCSC[C@@H](N)[C@H]31 | Vero | > | 1 |
| NC(=O)c1ncn([C@@H]2O[C@H](CO)[C@@H](O)[C@H]2O)n1 | Vero | = | 70 |
| N[C@@H]1CSCON2CCc3c([nH]c4ccccc34)[C@H]12 | Vero | = | 0.4 |
| O=c1[nH]c(=O)n([C@H]2C[C@H](O)[C@@H](CO)O2)cc1/C=C/Br | Vero | > | 400 |
| N[C@@H]1CSCON2CCc3c([nH]c4ccccc34)[C@@H]12 | Vero | > | 10 |
| Cn1c2c(c3ccccc31)CCN1OCSC[C@@H](N)[C@H]21 | Vero | > | 10 |
| O[C@@H]1CSCON2CCc3c([nH]c4ccccc34)[C@@H]12 | Vero | > | 40 |
| c1ccc2c3c([nH]c2c1)C1CCSCON1CC3 (centres undefined) | Vero | > | 10 |
| N[C@H]1CSCON2CCc3c([nH]c4ccccc34)[C@H]12 | Vero | > | 4 |
| C[C@@H]1CSCON2CCc3c([nH]c4ccccc34)[C@H]12 | Vero | = | 20 |
| N[C@H]1CSCON2CCc3c([nH]c4ccccc34)[C@@H]12 | Vero | = | 7 |
| COc1ccc2[nH]c3c(c2c1)CCN1OCSC[C@@H](N)[C@@H]31 | Vero | = | 0.07 |
| Cn1c2c(c3ccccc31)CCN1OCSC[C@@H](N)[C@@H]21 | Vero | = | 0.7 |

====

Entries and their MIC values follow.
- Tested on: Influenza B virus
- experiment: Concentration required to reduce influenza virus B (singapore) induced cytopathogenicity by 50%
- Format: functional

| molecule | system | MIC |
| --- | --- | --- |
| N[C@@H]1CSCON2CCc3c([nH]c4ccccc34)[C@@H]12 | Influenza B virus | > 8 µg/mL |
| COc1ccc2[nH]c3c(c2c1)CCN1OCSC[C@@H](N)[C@@H]31 | Influenza B virus | > 0.32 µg/mL |
| O[C@@H]1CSCON2CCc3c([nH]c4ccccc34)[C@@H]12 | Influenza B virus | > 1.6 µg/mL |
| NC(=O)c1ncn([C@@H]2O[C@H](CO)[C@@H](O)[C@H]2O)n1 [RIBAVIRIN] | Influenza B virus | 15 µg/mL |
| N[C@@H]1CSCON2CCc3c([nH]c4ccccc34)[C@H]12 | Influenza B virus | 0.8 µg/mL |
| N[C@H]1CSCON2CCc3c([nH]c4ccccc34)[C@H]12 | Influenza B virus | > 1.6 µg/mL |
| N[C@H]1CSCON2CCc3c([nH]c4ccccc34)[C@@H]12 | Influenza B virus | 3 µg/mL |
| c1ccc2c3c([nH]c2c1)C1CCSCON1CC3 (stereo not drawn) | Influenza B virus | > 40 µg/mL |

====

Entries and their MIC values follow.
- experiment: Evaluation for antiviral activity against vesicular stomatitis virus in primary rabbit kidney cell cultures(PRK) (Concentration required to reduce virus-induced cytopathogenicity by 50%)
- Format: functional
- experimental_parameters: Oryctolagus cuniculus

| molecule | MIC |
| --- | --- |
| Cn1c2c(c3ccccc31)CCN1OCSC[C@@H](N)[C@@H]21 | 7 µg/mL |
| Cn1c2c(c3ccccc31)CCN1OCSC[C@@H](N)[C@H]21 | > 10 µg/mL |
| c1ccc2c3c([nH]c2c1)C1CCSCON1CC3 (centres undefined) | > 100 µg/mL |
| COc1ccc2[nH]c3c(c2c1)CCN1OCSC[C@@H](N)[C@@H]31 | 0.02 µg/mL |
| N[C@@H]1CSCON2CCc3c([nH]c4ccccc34)[C@@H]12 | > 10 µg/mL |
| O[C@@H]1CSCON2CCc3c([nH]c4ccccc34)[C@@H]12 | > 100 µg/mL |
| COc1ccc2[nH]c3c(c2c1)CCN1OCSC[C@@H](N)[C@H]31 | > 4 µg/mL |
| NC(=O)c1ncn([C@@H]2O[C@H](CO)[C@@H](O)[C@H]2O)n1 | > 400 µg/mL |
| N[C@@H]1CSCON2CCc3c([nH]c4ccccc34)[C@H]12 | 0.2 µg/mL |
| N[C@H]1CSCON2CCc3c([nH]c4ccccc34)[C@H]12 | > 4 µg/mL |
| N[C@H]1CSCON2CCc3c([nH]c4ccccc34)[C@@H]12 | 2 µg/mL |
| C[C@@H]1CSCON2CCc3c([nH]c4ccccc34)[C@H]12 | > 100 µg/mL |
| Nc1nccc2c1ncn2[C@@H]1C[C@H](CO)[C@@H](O)[C@H]1O | 2 µg/mL |
| O=c1[nH]c(=O)n([C@H]2C[C@H](O)[C@@H](CO)O2)cc1/C=C/Br | > 200 µg/mL |

These entries and their values trace back to ChEMBL document CHEMBL1125540.
